target: D(1A) dopamine receptor (Rattus norvegicus); assay: Displacement of [3H]-SCH- 23390 from Dopamine receptor D1 of rat striatal membranes; type: cell membranes, Membrane
Sequence (P18901 whole entry): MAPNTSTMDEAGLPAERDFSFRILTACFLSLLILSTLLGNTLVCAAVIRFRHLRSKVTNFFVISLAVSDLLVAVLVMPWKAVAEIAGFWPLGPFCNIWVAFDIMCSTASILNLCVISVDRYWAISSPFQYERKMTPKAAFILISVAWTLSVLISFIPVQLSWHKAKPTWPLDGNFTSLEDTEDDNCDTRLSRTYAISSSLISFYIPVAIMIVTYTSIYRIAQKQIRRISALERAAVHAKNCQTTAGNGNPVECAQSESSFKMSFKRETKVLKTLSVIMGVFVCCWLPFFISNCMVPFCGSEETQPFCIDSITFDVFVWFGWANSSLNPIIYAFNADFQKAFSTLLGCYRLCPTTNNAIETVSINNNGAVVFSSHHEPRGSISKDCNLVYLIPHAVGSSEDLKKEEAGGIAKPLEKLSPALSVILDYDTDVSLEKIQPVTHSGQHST
So I've got a bunch of molecules here, and I need their IC50 values.
# value in nM; strip the unit string

Could you tell me which IC50 is on file for `I/C=C/CN1CCC[C@@H]2c3ccccc3CC[C@H]21` ?
1900

Would you kindly share the measured IC50 for C#CCN1CCCC2Cc3c(O)cccc3CC21 (configuration not stated) ?
700

Tell me the measured IC50 of Oc1cccc2c1CC1CCCN(C/C=C/I)C1C2 (configuration not stated) , please.
120

// returns reported IC50 for input `COc1cccc2c1CC[C@@H]1[C@@H]2CCCN1C/C=C/I`
270

Give the measured IC50 of COc1cccc2c1CC1CCCN(C/C=C/I)C1C2 (configuration not stated) .
80

Give the measured IC50 of `Oc1cccc2c1CC[C@@H]1[C@@H]2CCCN1C/C=C/I` .
1130

Given the molecule I/C=C/CN1CCCC2Cc3ccccc3CC21 (configuration not stated) , what is its reported IC50?
220

----------
biological target: Adrenergic receptor alpha-1 (Rattus norvegicus, UniProt P15823+P23944+P43140); test: Displacement of [3H]prazosin from Alpha-1 adrenergic receptor of rat cortical membranes; format: cell membranes, Membrane
I'd appreciate it if you marked entries MET when IC50 is lower than 300 nM and NOT MET when it is not.

Is 300 nM strictly greater than the compound's reported IC50? compound: COc1cccc2c1CC1CCCN(C/C=C/I)C1C2 (stereo unspecified)
MET

Take the compound Oc1cccc2c1CC1CCCN(C/C=C/I)C1C2 (stereo unspecified) and say whether its IC50 is less than 300 nM.
MET

Would you kindly verify if IC50 of I/C=C/CN1CCCC2Cc3ccccc3CC21 (stereo unspecified) is strictly less than 300 nM?
MET

Please check: IC50 for `Oc1cccc2c1CC[C@@H]1[C@@H]2CCCN1C/C=C/I` , strictly under 300 nM or not?
MET

Problem: For the compound COc1cccc2c1CC1CCCNC1C2 (stereo unspecified) , is IC50 under 300 nM?
NOT MET

Given C#CCN1CCCC2Cc3ccccc3CC21 (stereo unspecified) , is recorded IC50 strictly lower than 300 nM?
NOT MET

In the record for `C#CCN1CCC[C@@H]2c3cccc(OC)c3CC[C@H]21` , is IC50 less than 300 nM?
NOT MET

IC50 under 300 nM? Item: C#CCN1CCCC2Cc3c(O)cccc3CC21 (stereo unspecified)
MET

# TODO verify IC50 < 300 nM strictly for this compound: C#CCN1CCCC2Cc3c(cccc3OC)CC21 (stereo unspecified)
NOT MET

Hello, is IC50 of the following compound strictly smaller than 300 nM? `COc1cccc2c1CC[C@@H]1[C@@H]2CCCN1C/C=C/I`
NOT MET

Consider `I/C=C/CN1CCC[C@@H]2c3ccccc3CC[C@H]21` . Does its IC50 lie strictly below 300 nM?
MET

----------
Target: Adrenergic receptor alpha-2 (Rattus norvegicus, UniProt P22086+P19328+P22909)
Sequence (P22086 whole entry): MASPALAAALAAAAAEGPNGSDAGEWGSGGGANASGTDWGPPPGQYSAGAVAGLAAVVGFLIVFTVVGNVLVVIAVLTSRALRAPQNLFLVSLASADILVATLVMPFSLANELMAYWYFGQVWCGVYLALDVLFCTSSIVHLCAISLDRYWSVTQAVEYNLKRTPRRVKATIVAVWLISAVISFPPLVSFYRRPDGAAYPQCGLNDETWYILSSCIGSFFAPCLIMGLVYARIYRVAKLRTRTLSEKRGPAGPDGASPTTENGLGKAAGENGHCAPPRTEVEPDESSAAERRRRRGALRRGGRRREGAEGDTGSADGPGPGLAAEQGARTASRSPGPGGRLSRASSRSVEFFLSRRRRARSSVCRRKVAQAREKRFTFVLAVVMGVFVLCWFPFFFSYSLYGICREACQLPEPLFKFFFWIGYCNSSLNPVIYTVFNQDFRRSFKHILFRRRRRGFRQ
Sequence (P19328 whole entry): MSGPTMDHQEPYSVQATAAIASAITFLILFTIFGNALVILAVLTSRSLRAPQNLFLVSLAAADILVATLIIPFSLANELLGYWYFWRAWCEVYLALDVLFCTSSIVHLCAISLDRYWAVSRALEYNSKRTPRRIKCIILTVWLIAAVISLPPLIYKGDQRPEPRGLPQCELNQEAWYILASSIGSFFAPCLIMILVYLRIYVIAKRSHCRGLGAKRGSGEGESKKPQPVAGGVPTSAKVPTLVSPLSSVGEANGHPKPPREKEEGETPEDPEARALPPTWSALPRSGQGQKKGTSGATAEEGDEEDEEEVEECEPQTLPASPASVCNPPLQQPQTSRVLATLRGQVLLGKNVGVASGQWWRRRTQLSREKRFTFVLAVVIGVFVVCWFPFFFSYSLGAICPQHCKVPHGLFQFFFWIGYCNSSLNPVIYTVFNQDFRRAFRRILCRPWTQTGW
Sequence (P22909 whole entry): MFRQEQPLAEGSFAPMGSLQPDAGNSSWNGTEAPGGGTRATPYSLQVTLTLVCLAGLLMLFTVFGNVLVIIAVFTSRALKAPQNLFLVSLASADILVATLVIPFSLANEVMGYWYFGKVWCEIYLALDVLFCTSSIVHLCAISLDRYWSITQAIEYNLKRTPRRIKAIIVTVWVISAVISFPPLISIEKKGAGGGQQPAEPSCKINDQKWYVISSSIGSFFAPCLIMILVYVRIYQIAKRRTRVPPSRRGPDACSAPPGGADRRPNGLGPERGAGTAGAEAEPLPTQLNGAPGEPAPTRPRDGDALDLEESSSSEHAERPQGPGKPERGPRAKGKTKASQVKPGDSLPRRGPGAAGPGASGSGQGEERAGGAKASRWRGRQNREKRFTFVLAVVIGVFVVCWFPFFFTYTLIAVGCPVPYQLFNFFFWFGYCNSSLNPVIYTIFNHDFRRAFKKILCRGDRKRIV
Experiment: Inhibition of specific binding of [3H]rauwolscine to Alpha-2 adrenergic receptor in rat cortical membranes
Type: cell membranes, Membrane
readout kind: log10(IC50) (log10 of the value in µM)
# log10 transformed; quantity=IC50; unit=µM

Please report the recorded log10(IC50) for `COc1cccc2c1CC[C@@H]1[C@@H]2CCCN1C/C=C/I` .
-1.74

Query: log10(IC50); subject: `C#CCN1CCC[C@@H]2c3cccc(O)c3CC[C@H]21`
-1.31

# lookup: log10(IC50) of `C#CCN1CCC[C@@H]2c3cccc(OC)c3CC[C@H]21`
-0.71

For the molecule shown here, `COc1cccc2c1CC[C@H]1NCCC[C@H]21` , give the reported log10(IC50).
-1.26

Look up log10(IC50): `Oc1cccc2c1CC[C@@H]1[C@@H]2CCCN1C/C=C/I`
-1.33

What value of log10(IC50) has been recorded for this entry: c1ccc2c(c1)CC1CCCNC1C2 (configuration not stated)
-0.89

Fill blank: measured log10(IC50) of the molecule `I/C=C/CN1CCC[C@@H]2c3ccccc3CC[C@H]21` is ____.
-0.89

----------
Biological target: Adrenergic receptor alpha-2 (Rattus norvegicus, UniProt P22086+P19328+P22909)
Sequence (P22086 whole entry): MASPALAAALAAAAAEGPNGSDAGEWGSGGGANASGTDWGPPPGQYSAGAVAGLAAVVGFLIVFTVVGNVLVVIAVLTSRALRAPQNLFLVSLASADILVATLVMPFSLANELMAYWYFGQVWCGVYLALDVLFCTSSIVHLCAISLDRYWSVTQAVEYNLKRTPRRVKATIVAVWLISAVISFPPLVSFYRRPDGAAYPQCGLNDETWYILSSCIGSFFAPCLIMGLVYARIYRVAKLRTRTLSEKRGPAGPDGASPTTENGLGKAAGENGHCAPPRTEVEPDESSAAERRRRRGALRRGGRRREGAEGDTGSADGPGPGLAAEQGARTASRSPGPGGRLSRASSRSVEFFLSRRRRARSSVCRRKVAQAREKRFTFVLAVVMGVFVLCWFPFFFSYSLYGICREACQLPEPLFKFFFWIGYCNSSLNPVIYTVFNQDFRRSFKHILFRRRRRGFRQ
Sequence (P19328 whole entry): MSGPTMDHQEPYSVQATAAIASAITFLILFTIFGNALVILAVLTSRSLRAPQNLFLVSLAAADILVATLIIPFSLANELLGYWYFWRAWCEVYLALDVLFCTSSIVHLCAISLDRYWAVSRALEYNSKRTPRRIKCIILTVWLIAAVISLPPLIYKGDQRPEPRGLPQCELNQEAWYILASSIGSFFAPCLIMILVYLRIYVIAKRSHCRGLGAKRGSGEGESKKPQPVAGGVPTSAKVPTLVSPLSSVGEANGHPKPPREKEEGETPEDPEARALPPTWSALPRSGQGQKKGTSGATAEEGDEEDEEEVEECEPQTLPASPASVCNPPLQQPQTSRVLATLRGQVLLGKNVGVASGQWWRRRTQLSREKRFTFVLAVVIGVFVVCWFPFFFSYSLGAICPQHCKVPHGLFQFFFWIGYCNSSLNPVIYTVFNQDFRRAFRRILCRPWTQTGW
Sequence (P22909 whole entry): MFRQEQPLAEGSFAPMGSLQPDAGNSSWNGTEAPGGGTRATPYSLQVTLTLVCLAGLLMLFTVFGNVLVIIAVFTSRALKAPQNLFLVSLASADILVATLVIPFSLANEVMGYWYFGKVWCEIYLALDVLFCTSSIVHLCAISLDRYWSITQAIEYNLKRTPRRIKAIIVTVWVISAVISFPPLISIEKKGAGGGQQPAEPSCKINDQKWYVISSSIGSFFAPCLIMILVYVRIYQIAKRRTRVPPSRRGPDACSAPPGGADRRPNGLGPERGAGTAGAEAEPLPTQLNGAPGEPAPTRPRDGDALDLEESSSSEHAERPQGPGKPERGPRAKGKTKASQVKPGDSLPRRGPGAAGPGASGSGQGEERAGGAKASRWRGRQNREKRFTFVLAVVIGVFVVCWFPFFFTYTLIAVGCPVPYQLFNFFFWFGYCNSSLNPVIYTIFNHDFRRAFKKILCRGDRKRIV
Assay: Displacement of [3H]rauwolscine from Alpha-2 adrenergic receptor of rat cortical membranes
Type: cell membranes, Membrane
Rule: IC50 below 200 nM gives 1, anything at or above gives 0.

IC50 strictly < 200 nM for this compound? C#CCN1CCCC2Cc3ccccc3CC21 (centres undefined)
1

Please determine if `C#CCN1CCC[C@@H]2c3ccccc3CC[C@H]21` is below 200 nM in terms of IC50.
1

Does the reported IC50 of the following compound sit strictly below 200 nM? COc1cccc2c1CC1CCCN(C/C=C/I)C1C2 (centres undefined)
0

Check if IC50 falls below 200 nM for Oc1cccc2c1CC1CCCN(C/C=C/I)C1C2 (centres undefined) .
1

Just wondering, is IC50 of `c1ccc2c(c1)CC[C@H]1NCCC[C@H]21` below 200 nM?
1

Lab note: confirm whether the reported IC50 for this compound is below 200 nM, equality not counting. compound: C#CCN1CCCC2Cc3c(O)cccc3CC21 (centres undefined)
0

hey, is IC50 for COc1cccc2c1CC1CCCNC1C2 (centres undefined) lower than 200 nM or not?
1

For I/C=C/CN1CCCC2Cc3ccccc3CC21 (centres undefined) , is the recorded IC50 below the cut-off of 200 nM?
1
